# assaySystem: Rlig1-AMP (Homo sapiens, UniProt Q8N999)
# Construct: made in house; host or cells: E. coli BL21 (DE3), pET15b-Rlig1
# Sequence (Q8N999 whole entry): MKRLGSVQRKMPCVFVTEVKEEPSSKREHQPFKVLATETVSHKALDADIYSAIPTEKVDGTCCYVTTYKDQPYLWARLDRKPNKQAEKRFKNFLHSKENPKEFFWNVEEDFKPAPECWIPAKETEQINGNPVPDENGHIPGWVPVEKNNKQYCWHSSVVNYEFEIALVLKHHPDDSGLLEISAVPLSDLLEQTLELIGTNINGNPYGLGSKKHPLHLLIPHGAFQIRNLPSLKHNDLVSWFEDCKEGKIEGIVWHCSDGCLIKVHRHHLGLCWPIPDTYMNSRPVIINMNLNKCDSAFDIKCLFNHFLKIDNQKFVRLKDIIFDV
# procedureText: FRET-based high-throughput screening of inhibitors for Rlig1-AMP
# Type: biochemical
# experimentalContext: sheet HTS hits; with enzyme
reportedEndpoint: Raw data [w Enyzm]
Format: numeric value only, no unit, no commentary.

The compound listed as `Cc1nc2cc(C(=O)N(C)C)cc(O[C@H]3CCOc4cc(F)cc(F)c43)c2[nH]1` has a reported Raw data [w Enyzm] of 8992

The compound listed as CN1CCc2nc(C(=O)N[C@@H]3C[C@@H](C(=O)N(C)C)CC[C@@H]3NC(=O)C(=O)Nc3ccc(Cl)cn3)sc2C1.Cc1ccc(S(=O)(=O)O)cc1.O [Edoxaban (tosylate monohydrate)] has a reported Raw data [w Enyzm] of 9167

The compound listed as O=C(O)CCCN1CCC(O[C@@H](c2ccc(Cl)cc2)c2ccccn2)CC1.O=S(=O)(O)c1ccccc1 [Bepotastine (besilate)] has a reported Raw data [w Enyzm] of 8762

The compound listed as COc1cc2c(NCC3CCN(C)CC3)cc(-c3ccc(C)o3)nc2cc1OCCCN1CCCC1.Cl.Cl.Cl [CM-579 trihydrochloride] has a reported Raw data [w Enyzm] of 6218

The compound listed as `CC1=NN(c2ccc(C)c(C)c2)C(=O)/C1=N\Nc1cccc(-c2cccc(C(=O)O)c2)c1O` has a reported Raw data [w Enyzm] of 3742

The compound listed as CC(C)(c1ccc(O)cc1)c1ccc(OCc2cccc(COc3ccc(C(=N)N)cc3)c2)cc1.Cl [BIIL-260 (hydrochloride)] has a reported Raw data [w Enyzm] of 4623

The compound listed as `CC(C)=CCc1cc([C@@H]2CC(=O)c3ccc(O)c(CC=C(C)C)c3O2)ccc1O` has a reported Raw data [w Enyzm] of 8836

The compound listed as COc1cccc2c1C(=O)c1c(O)c3c(c(O)c1C2=O)C[C@@](O)(C(C)=O)C[C@@H]3O[C@H]1C[C@H](N)[C@H](O)[C@H](C)O1.Cl [Daunorubicin (hydrochloride)] has a reported Raw data [w Enyzm] of 1522

###

Please go through the items and note down their 1-D Distance.
# assaySystem: Rlig1-AMP (Homo sapiens, UniProt Q8N999)
# Construct: made in house; host or cells: E. coli BL21 (DE3), pET15b-Rlig1
# procedureText: FRET-based high-throughput screening of inhibitors for Rlig1-AMP
# Assay type: biochemical
# experimentalContext: sheet HTS hits; difference of raw data w/o and w enzyme
Format: numeric value only, no unit, no commentary.

The compound listed as CN1CCc2nc(C(=O)N[C@@H]3C[C@@H](C(=O)N(C)C)CC[C@@H]3NC(=O)C(=O)Nc3ccc(Cl)cn3)sc2C1.Cc1ccc(S(=O)(=O)O)cc1.O [Edoxaban (tosylate monohydrate)] has a reported 1-D Distance of 1653

The compound listed as O=C(O)CCCN1CCC(O[C@@H](c2ccc(Cl)cc2)c2ccccn2)CC1.O=S(=O)(O)c1ccccc1 [Bepotastine (besilate)] has a reported 1-D Distance of 1900

The compound listed as `CC(C)(C)OC(=O)CCOCCBr` has a reported 1-D Distance of 1882
